Tested on: 186277-243-T-J2-PDC complex spheroid growth
TEST DETAILS: Anticancer human tumor 186277-243-T-J2-PDC patient-derived colon adenocarcinoma cell line growth inhibition [AhR]
EXPERIMENTAL CONTEXT: second compound 3.16 µM; first compound 0.949 µM; stronger effect = lower value
RESULT TYPE: viability, T/C (%)

{"columns": ["MOLECULE", "RESULT TYPE", "QUANTITY UNIT", "OBSERVED MEASUREMENT"],
 "data": [
  ["CCN(c1cc(-c2ccc(CN3CCOCC3)cc2)cc(C(=O)NCc2c(C)cc(C)[nH]c2=O)c1C)C1CCOCC1 + Cc1cncc(-c2nc(NCCc3c[nH]c4ccccc34)c3ncn(C(C)C)c3n2)c1", "viability, T/C", "%", 90.7],
  ["O=C(C=Cn1cnc(-c2cc(C(F)(F)F)cc(C(F)(F)F)c2)n1)NNc1cnccn1 + CC(CO)NC(=O)c1cc(-c2ccc(Cl)cc2)nn(-c2cnn(C)c2)c1=O", "viability, T/C", "%", 4.26],
  ["CCN(c1cc(-c2ccc(CN3CCOCC3)cc2)cc(C(=O)NCc2c(C)cc(C)[nH]c2=O)c1C)C1CCOCC1 + Cc1ccccc1N=Nc1ccc(NC(=O)c2ccnn2C)c(C)c1", "viability, T/C", "%", 107],
  ["CCN(c1cc(-c2ccc(CN3CCOCC3)cc2)cc(C(=O)NCc2c(C)cc(C)[nH]c2=O)c1C)C1CCOCC1 + CC(CO)NC(=O)c1cc(-c2ccc(Cl)cc2)nn(-c2cnn(C)c2)c1=O", "viability, T/C", "%", 92.3],
  ["O=C(C=Cn1cnc(-c2cc(C(F)(F)F)cc(C(F)(F)F)c2)n1)NNc1cnccn1 + Cc1ccccc1N=Nc1ccc(NC(=O)c2ccnn2C)c(C)c1", "viability, T/C", "%", 16.4],
  ["O=C(C=Cn1cnc(-c2cc(C(F)(F)F)cc(C(F)(F)F)c2)n1)NNc1cnccn1 + Cc1cncc(-c2nc(NCCc3c[nH]c4ccccc34)c3ncn(C(C)C)c3n2)c1", "viability, T/C", "%", 15.1]
]}

====

Test system: 186277-243-T-J2-PDC complex spheroid growth
TEST DETAILS: Anticancer human tumor 186277-243-T-J2-PDC cell line growth inhibition [AhR];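 further: spheroids exposed to compounds for seven days before the viability read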
EXPERIMENTAL CONTEXT: curve of first compound; second compound 0.1 µM

{"columns": ["COMPOUND", "INEQUALITY OPERATOR", "IC50 / nM"],
 "data": [
  ["O=C(C=Cn1cnc(-c2cc(C(F)(F)F)cc(C(F)(F)F)c2)n1)NNc1cnccn1 + Cc1ccccc1N=Nc1ccc(NC(=O)c2ccnn2C)c(C)c1", "=", 494],
  ["O=C(C=Cn1cnc(-c2cc(C(F)(F)F)cc(C(F)(F)F)c2)n1)NNc1cnccn1 + CC(CO)NC(=O)c1cc(-c2ccc(Cl)cc2)nn(-c2cnn(C)c2)c1=O", "=", 86.6],
  ["NS(=O)(=O)OCC1CC(n2ccc3c(NC4CCc5ccccc54)ncnc32)CC1O (centres undefined) + CC(CO)NC(=O)c1cc(-c2ccc(Cl)cc2)nn(-c2cnn(C)c2)c1=O", "=", 205],
  ["Cn1ncnc1C1c2n[nH]c(=O)c3cc(F)cc(c23)NC1c1ccc(F)cc1 (centres undefined) + Cc1ccccc1N=Nc1ccc(NC(=O)c2ccnn2C)c(C)c1", ">", 100]
]}

====

Tested on: 186277-243-T-J2-PDC complex spheroid growth
TEST DETAILS: Anticancer human tumor 186277-243-T-J2-PDC cell line growth inhibition [AhR]; active = viability on the fitted dose curve at most 10% of control; inactive = the rest;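 further: spheroids exposed to compounds for seven days before the viability read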
EXPERIMENTAL CONTEXT: second compound 3.16 µM; first compound 1 µM
Description: Multicellular complex tumor spheroid response to aryl hydrocarbon receptor antagonists in combination with a variety of drugs and investigational agents in selected tumor cell lines […] Compounds. […] If the clinical Cmax for an agent had not been determined, the highest concentration tested was 10 microM (Table 1). […]
Outcomes: 1 for active, 0 for inactive

{"columns": ["COMPOUND", "CLASS NAME"],
 "data": [
  ["COc1cccc2c1C(=O)c1c(O)c3c(c(O)c1C2=O)CC(O)(C(=O)CO)CC3OC1CC(N)C(O)C(C)O1 (stereo unspecified) + CC(CO)NC(=O)c1cc(-c2ccc(Cl)cc2)nn(-c2cnn(C)c2)c1=O", 1],
  ["Nc1ccn(C2OC(CO)C(O)C2(F)F)c(=O)n1 (stereo unspecified) + CC(CO)NC(=O)c1cc(-c2ccc(Cl)cc2)nn(-c2cnn(C)c2)c1=O", 1],
  ["CC(C)c1c(-c2ccccc2)nc2c(C#N)c[nH]n2c1=O + CC(CO)NC(=O)c1cc(-c2ccc(Cl)cc2)nn(-c2cnn(C)c2)c1=O", 0],
  ["Nc1ccccc1NC(=O)c1ccc(CNC(=O)OCc2cccnc2)cc1 + CC(CO)NC(=O)c1cc(-c2ccc(Cl)cc2)nn(-c2cnn(C)c2)c1=O", 0],
  ["COc1cc(Nc2ncc3c(n2)-c2ccc(Cl)cc2C(c2c(F)cccc2OC)=NC3)ccc1C(=O)O + Cc1cncc(-c2nc(NCCc3c[nH]c4ccccc34)c3ncn(C(C)C)c3n2)c1", 0],
  ["O=C(C=Cc1cccc(S(=O)(=O)Nc2ccccc2)c1)NO + Cc1cncc(-c2nc(NCCc3c[nH]c4ccccc34)c3ncn(C(C)C)c3n2)c1", 0]
]}

====

Tested on: 186277-243-T-J2-PDC complex spheroid growth
TEST DETAILS: Anticancer human tumor 186277-243-T-J2-PDC cell line growth inhibition [AhR];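 further: spheroids exposed to compounds for seven days before the viability read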;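 on viability, T/C: luminescent signal used as a stand-in for viable cell amount; 100% = DMSO vehicle control wells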
EXPERIMENTAL CONTEXT: second compound 3.16 µM; first compound 1 µM; stronger effect = lower value
RESULT TYPE: viability, T/C (%)

{"columns": ["COMPOUND", "OBSERVED MEASUREMENT"],
 "data": [
  ["Nc1ccccc1NC(=O)c1ccc(CNC(=O)OCc2cccnc2)cc1 + Cc1ccccc1N=Nc1ccc(NC(=O)c2ccnn2C)c(C)c1", 96.8],
  ["CC1COCCN1c1cc(C2(S(C)(=N)=O)CC2)nc(-c2ccnc3[nH]ccc23)n1 (stereo not given) + Cc1cncc(-c2nc(NCCc3c[nH]c4ccccc34)c3ncn(C(C)C)c3n2)c1", 105],
  ["COc1cccc2c1C(=O)c1c(O)c3c(c(O)c1C2=O)CC(O)(C(=O)CO)CC3OC1CC(N)C(O)C(C)O1 (stereo not given) + Cc1cncc(-c2nc(NCCc3c[nH]c4ccccc34)c3ncn(C(C)C)c3n2)c1", 0.05],
  ["CC1(C)CCC(CN2CCN(c3ccc(C(=O)NS(=O)(=O)c4ccc(NCC5CCOCC5)c([N+](=O)[O-])c4)c(Oc4cnc5[nH]ccc5c4)c3)CC2)=C(c2ccc(Cl)cc2)C1 + Cc1ccccc1N=Nc1ccc(NC(=O)c2ccnn2C)c(C)c1", 94.3],
  ["COc1cc(C2c3cc4c(cc3C(OC3OC5COC(C)OC5C(O)C3O)C3COC(=O)C23)OCO4)cc(OC)c1O (stereo not given) + Cc1ccccc1N=Nc1ccc(NC(=O)c2ccnn2C)c(C)c1", 94.6]
]}

====

Tested on: 186277-243-T-J2-PDC complex spheroid growth
TEST DETAILS: Anticancer human tumor 186277-243-T-J2-PDC cell line growth inhibition [AhR];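 further: spheroids exposed to compounds for seven days before the viability read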
EXPERIMENTAL CONTEXT: curve of first compound; second compound 0.1 µM
Text: Multicellular complex tumor spheroid response to aryl hydrocarbon receptor antagonists in combination with a variety of drugs and investigational agents in selected tumor cell lines […] Compounds. […] If the clinical Cmax for an agent had not been determined, the highest concentration tested was 10 microM (Table 1). […]
pIC50: −log10 of the molar value.
RESULT TYPE: pIC50

{"columns": ["MOLECULE", "TARGET ENTITY", "INEQUALITY OPERATOR", "OBSERVED MEASUREMENT"],
 "data": [
  ["O=C(C=Cc1cccc(S(=O)(=O)Nc2ccccc2)c1)NO + Cc1ccccc1N=Nc1ccc(NC(=O)c2ccnn2C)c(C)c1", "186277-243-T-J2-PDC complex spheroid growth", "=", 5.69],
  ["COc1cc(C2c3cc4c(cc3C(OC3OC5COC(C)OC5C(O)C3O)C3COC(=O)C23)OCO4)cc(OC)c1O (stereo unspecified) + CC(CO)NC(=O)c1cc(-c2ccc(Cl)cc2)nn(-c2cnn(C)c2)c1=O", "186277-243-T-J2-PDC complex spheroid growth", "=", 6.55],
  ["CC(C)c1c(-c2ccccc2)nc2c(C#N)c[nH]n2c1=O + Cc1cncc(-c2nc(NCCc3c[nH]c4ccccc34)c3ncn(C(C)C)c3n2)c1", "186277-243-T-J2-PDC complex spheroid growth", "<", 5.00],
  ["CC1COCCN1c1cc(-c2ccnn2C)c2ccnc(-c3ccn[nH]3)c2n1 (stereo unspecified) + Cc1cncc(-c2nc(NCCc3c[nH]c4ccccc34)c3ncn(C(C)C)c3n2)c1", "186277-243-T-J2-PDC complex spheroid growth", "=", 7.10],
  ["Nc1ncn(C2CC(O)C(CO)O2)c(=O)n1 (stereo unspecified) + Cc1cncc(-c2nc(NCCc3c[nH]c4ccccc34)c3ncn(C(C)C)c3n2)c1", "186277-243-T-J2-PDC complex spheroid growth", "<", 6.00],
  ["Nc1ncn(C2CC(O)C(CO)O2)c(=O)n1 (stereo unspecified) + Cc1ccccc1N=Nc1ccc(NC(=O)c2ccnn2C)c(C)c1", "186277-243-T-J2-PDC complex spheroid growth", "<", 6.00]
]}
